Data provenance is paper PMC13376213.

target: USP20 DUSP2 domain (Homo sapiens); construct: USP20_DUSP2; Q9Y2K6; DUSP2; 776; 894; 6xHis-GST (N, cleaved yes); made in house; host or cells: Escherichia coli BL21-Gold (DE3); test: Peptide SPOT array, USP20 DUSP2; format: binding; details: peptide SPOT array, USP20 DUSP2; average normalised to the highest intensity (ARNTL2 = 100);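 note: GST-tagged domain probed overnight at 4 °C on peptides made on cellulose membranes, bound protein detected via HRP-coupled anti-GST antibody, spot intensity from image analysis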
Sequence (Q9Y2K6 with tags, fused parts or gaps): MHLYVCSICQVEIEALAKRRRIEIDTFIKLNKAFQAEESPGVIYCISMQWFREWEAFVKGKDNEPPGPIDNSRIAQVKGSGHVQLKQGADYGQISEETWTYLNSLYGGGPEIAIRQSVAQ
Measured endpoint: Normalize to higher intensity (%)

>  <Substance>
VKHPRFFALFEKHGGY [PPIP5K1]

>  <Study system>
USP20 DUSP2 domain (Homo sapiens)

>  <Normalize to higher intensity (%)>
-15.9

$$$$
>  <Substance>
QLEEELFQLRQGPAGL [CCDC88B]

>  <Study system>
USP20 DUSP2 domain (Homo sapiens)

>  <Normalize to higher intensity (%)>
34.95

$$$$

P: EKEDSCFELLHRAVGH [ASB8]
Q: IPMDDDFQLRSFDQLS [HIF1A]
stdin: Of P and Q , whose reported Normalize to higher intensity (%) is numerically smaller? Indicate your choice by writing its label.
stdout: P

1: EAGLALRTDLQGEAQI [ZNF783]
2: PDVVDDFQLQHRHGPG [MFSD2B]
stdin: Sorting by Normalize to higher intensity (%) in descending order, would 1 or 2 appear first? Indicate your choice by writing its label.
stdout: 2
(2: -3.824%, 1: -9.211%)

1: NGLDIAPRYFGFIKAC [SLC17A1]
2: KMGSDEFDISPRISKQ [MGA]
stdin: Sorting by Normalize to higher intensity (%) in descending order, would 1 or 2 appear first? Indicate your choice by writing its label.
stdout: 2

P: Ac-SDDDLAWNIAPQGLQ-NH2 [GPR137B348-362]
Q: LRHPSGWWLVENEDRQ [NOXO1]
stdin: Of P and Q , whose reported Normalize to higher intensity (%) is numerically smaller? Indicate your choice by writing its label.
stdout: P
